B1: ACSBG2 (parent)
chain: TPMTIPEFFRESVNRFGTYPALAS

Variants of: B1
assay: protein stability index of a GFP-peptide fusion (GPS, HEK-293T) (PSI 1-6); higher = more stable;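 further: lentivirally expressed fusions sorted by FACS into six bins by GFP to DsRed ratio, PSI derived from sequencing read proportions per bin multiplied by bin number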
experimental_setup: c terminus: a fixed tail appended
Label met when protein stability index is at or above 2; otherwise label not met.

{"columns": ["mutation_list", "group_label"],
 "data": [
  ["P20D", "met"],
  ["T18D", "met"],
  ["T1Y", "met"],
  ["R15A", "met"],
  ["P2R", "met"],
  ["P6C", "not met"]
]}

Please tell me: is the variant V13I at or over 2 in terms of protein stability index?
met

For this variant, is measured protein stability index 2 or higher? T1E
met

Is the recorded value of protein stability index equal to or greater than 2 for this variant? F8P
met

Threshold query (protein stability index >= 2) on L22Y
not met

Check if protein stability index >= 2 (inclusive). Item: S24Y
not met

State whether the measured protein stability index reaches 2, counting equality as reaching it, for N14V
not met

Kindly determine if protein stability index recorded for M3A is above or exactly 2.
met

Hi team, for P6T , is the recorded protein stability index at or above 2?
not met

Can S12P be said to have protein stability index at or above 2?
met

# credit: the supplement of paper PMC10567573
